Target: rh-α5β1 (Homo sapiens, UniProt P05556+P08648)
Sequence (P08648 42-894 limits assumed): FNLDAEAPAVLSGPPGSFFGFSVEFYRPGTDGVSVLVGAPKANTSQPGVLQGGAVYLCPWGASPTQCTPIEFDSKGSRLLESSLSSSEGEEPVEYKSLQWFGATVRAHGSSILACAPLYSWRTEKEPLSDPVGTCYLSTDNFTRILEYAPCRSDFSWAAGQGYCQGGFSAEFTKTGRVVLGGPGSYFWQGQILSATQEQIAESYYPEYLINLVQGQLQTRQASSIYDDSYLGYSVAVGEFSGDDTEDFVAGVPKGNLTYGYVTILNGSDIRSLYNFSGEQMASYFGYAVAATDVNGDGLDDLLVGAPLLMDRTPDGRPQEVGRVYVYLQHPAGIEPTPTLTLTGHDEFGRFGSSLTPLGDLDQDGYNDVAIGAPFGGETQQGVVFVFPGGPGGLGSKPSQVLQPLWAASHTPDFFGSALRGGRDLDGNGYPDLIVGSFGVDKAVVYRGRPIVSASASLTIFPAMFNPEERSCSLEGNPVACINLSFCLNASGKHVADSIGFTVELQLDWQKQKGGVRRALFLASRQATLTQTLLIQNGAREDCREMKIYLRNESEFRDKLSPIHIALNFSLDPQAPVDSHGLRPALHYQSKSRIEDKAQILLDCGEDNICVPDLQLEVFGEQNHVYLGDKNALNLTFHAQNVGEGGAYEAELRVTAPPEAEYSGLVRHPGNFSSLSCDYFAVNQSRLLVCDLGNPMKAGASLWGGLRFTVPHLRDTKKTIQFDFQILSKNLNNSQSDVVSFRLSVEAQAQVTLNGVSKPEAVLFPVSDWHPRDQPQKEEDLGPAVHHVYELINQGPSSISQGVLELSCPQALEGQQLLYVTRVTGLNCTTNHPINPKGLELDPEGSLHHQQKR
Sequence (P08648 895-995 limits assumed): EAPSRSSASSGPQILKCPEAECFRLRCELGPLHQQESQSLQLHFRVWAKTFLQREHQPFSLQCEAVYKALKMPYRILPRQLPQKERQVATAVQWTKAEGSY
Sequence (P05556 21-728 limits assumed): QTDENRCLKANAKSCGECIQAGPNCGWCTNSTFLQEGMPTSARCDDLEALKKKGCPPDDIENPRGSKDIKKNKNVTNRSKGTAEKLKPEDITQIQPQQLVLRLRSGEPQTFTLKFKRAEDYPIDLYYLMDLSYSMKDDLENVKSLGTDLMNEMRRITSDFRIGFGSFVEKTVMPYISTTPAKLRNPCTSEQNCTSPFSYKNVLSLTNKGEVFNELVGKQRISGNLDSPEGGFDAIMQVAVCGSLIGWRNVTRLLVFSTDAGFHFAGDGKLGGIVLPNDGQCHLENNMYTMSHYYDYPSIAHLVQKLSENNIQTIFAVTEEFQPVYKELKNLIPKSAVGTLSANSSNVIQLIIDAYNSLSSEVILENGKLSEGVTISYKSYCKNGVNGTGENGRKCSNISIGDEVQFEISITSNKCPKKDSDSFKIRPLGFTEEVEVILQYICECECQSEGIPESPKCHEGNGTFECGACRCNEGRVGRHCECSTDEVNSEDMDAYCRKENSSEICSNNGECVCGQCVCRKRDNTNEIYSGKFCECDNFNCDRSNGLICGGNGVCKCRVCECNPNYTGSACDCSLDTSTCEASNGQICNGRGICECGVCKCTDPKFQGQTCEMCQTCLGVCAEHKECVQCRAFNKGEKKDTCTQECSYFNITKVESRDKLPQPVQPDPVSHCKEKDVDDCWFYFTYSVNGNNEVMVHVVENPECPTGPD
Test: Competition binding studies by Biolayer Interferometry (epitope groups)
Details: immobilized mAb A-15B08; secondary mAb pre-mixed with 20 nM rh-α5β1; relative to antigen alone
Procedure: Epitope analysis via competition binding studies was performed using Biolayer Interferometry (BLI) on the 6 antibodies selected as described in Example 5. […] Equilibrate the sensor (30 seconds (s))-->Load lead Ab on the sensor (700s)--->Quench (480s)--->Read baseline (480s)-->measure preincubated Ab+Ag association with loaded sensor (600s).

- MOLECULE: "A-15B08: anti-α5β1 antibody, VH SEQ ID NO:25, VL SEQ ID NO:26; tested as mouse hybridoma antibody and as human IgG4 chimera (antibody, V domains shown, A-15B08 VH Sequence; A-15B08 VL Sequence, tested as mouse hybridoma antibody and as human IgG4 chimera) VH: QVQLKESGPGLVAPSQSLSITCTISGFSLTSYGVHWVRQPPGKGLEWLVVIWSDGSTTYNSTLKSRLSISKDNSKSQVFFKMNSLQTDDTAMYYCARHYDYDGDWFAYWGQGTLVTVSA VL: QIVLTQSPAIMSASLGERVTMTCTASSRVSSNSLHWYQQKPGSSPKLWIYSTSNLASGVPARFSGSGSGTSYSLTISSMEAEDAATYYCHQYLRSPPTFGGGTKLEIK"
  % Response (%): "−73.81"

Data origin, for the record: patent US20240279345A1
